System: experimental amnesia caused in rats by scopolamine
Assay Info: Preventive effect against experimental amnesia caused in rats by scopolamine (passive avoidance learning, intraperitoneal administration)
Format: in vivo, Wister male rats
Measurement Setup: 1 mg/kg i.p.; scopolamine 3 mg/kg i.p. after learning
Property Label: No. of amnesic rats/No. of rats tested

// below: answered molecules
Molecule: O=CC1CCCN1C(=O)Cc1ccc(Cl)cc1 (centres unmarked) [SUAM1052]
No. of amnesic rats/No. of rats tested: 3/10

Molecule: COc1ccc(CCC(=O)N2CCCC2C=O)cc1 (centres unmarked) [SUAM1050]
No. of amnesic rats/No. of rats tested: 5/10

Below is a list of molecules. For each, state its recorded No. of amnesic rats/No. of rats tested.
1. COc1ccc(/C=C/C(=O)N2CCCC2C=O)cc1 (centres unmarked) [SUAM1054]
2. CCC(C(=O)N1CCCC1C=O)c1ccccc1 (centres unmarked) [SUAM1066]
3. O=CC1CCCN1C(=O)CCC(=O)c1ccccc1 (centres unmarked) [SUAM1055]
4. O=CC1CCCN1C(=O)CCC(c1ccccc1)c1ccccc1 (centres unmarked) [SUAM1090]
5. O=CC1CCCN1C(=O)CC(c1ccccc1)c1ccccc1 (centres unmarked) [SUAM1065]
6. COc1ccc(CCCC(=O)N2CCCC2C=O)cc1 (centres unmarked) [SUAM1051]

Found:
1. 5/10
2. 3/10
3. 0/10
4. 4/10
5. 1/10
6. 0/10

---

Target Or Test System: prolyl endopeptidase (Elizabethkingia meningoseptica, UniProt P27028)
Sequence (P27028 21-705): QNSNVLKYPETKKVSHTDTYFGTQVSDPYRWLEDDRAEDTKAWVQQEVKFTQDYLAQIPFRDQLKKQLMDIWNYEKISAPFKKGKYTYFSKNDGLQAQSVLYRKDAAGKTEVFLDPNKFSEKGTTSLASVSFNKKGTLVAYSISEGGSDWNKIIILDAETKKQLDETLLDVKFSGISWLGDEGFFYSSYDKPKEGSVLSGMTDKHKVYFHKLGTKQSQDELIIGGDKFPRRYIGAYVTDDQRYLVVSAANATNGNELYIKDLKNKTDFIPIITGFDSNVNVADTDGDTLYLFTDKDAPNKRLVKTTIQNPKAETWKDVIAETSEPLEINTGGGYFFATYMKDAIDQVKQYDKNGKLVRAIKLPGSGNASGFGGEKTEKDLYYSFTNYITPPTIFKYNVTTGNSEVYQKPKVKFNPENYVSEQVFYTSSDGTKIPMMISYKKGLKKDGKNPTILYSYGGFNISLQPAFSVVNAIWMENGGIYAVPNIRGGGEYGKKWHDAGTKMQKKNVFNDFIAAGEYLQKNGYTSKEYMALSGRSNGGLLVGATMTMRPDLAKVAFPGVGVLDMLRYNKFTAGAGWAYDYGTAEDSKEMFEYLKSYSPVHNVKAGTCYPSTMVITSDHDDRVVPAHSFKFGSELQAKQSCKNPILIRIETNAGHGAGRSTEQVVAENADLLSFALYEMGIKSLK
Assay Info: Measurement of anti-prolyl endopeptidase activity
Type: biochemical
Measurement Setup: substrate Z-glycyl-proline-β-naphthylamide, 0.1M phosphate buffer pH 7.06, absorbance at 410 nm
Property Label: IC50 (amount of compound to achieve 50% inhibition of prolyl endopeptidase)
Remember to put the unit after the number in your answer.

Examples with their reported IC50 (amount of compound to achieve 50% inhibition of prolyl endopeptidase) follow.
Compound: O=CC1CCCN1C(=O)CCC(=O)c1ccccc1 (centres unmarked) [compound 30]
Measurement: 0.1 μg/test tube

Compound: COC(=O)C1CCCN1C(=O)/C=C/c1ccc(OC)cc1 (centres unmarked) [compound 37]
Measurement: 80 μg/test tube

Compound: COc1ccc(/C=C/C(=O)N2CCCC2C=O)cc1 (centres unmarked) [compound 39]
Measurement: 0.2 μg/test tube

Dear reader, for each entry below, please note its IC50 (amount of compound to achieve 50% inhibition of prolyl endopeptidase).
1. O=CC1CCCN1C(=O)Cc1ccc(Cl)cc1 (centres unmarked) [compound 16]
2. COC(=O)C1CCCN1C(=O)CCCc1ccc(OC)cc1 (centres unmarked) [compound 3]

Found:
["0.5 μg/test tube", "180 μg/test tube"]
